Sourced from paper PMC10005222

Test: Serum pharmacokinetics after oral administration in C57BL/6J mice
Assay type: in vivo
Conditions: male, mouse, oral 50 mg/kg in olive oil
endpoint-name: half-life

• O=c1cc(-c2ccc(O)cc2)oc2cc(O)cc(O)c12 = 3.44 h
• CC/C=C\C/C=C\C/C=C\C/C=C\C/C=C\C/C=C\CCC(=O)Oc1ccc(-c2cc(=O)c3c(O)cc(O)cc3o2)cc1 = 17.4 h

---

System: ADP-induced platelet aggregation
Assay: ADP-induced platelet aggregation in PRP (light transmittance aggregometry)
Type: cell-based, human
Details: Homo sapiens; ADP 10 μM, PRP, 1 min pre-incubation; mean ± SD, three platelet preparations
endpoint-name: IC50 (µM)

• CC/C=C\C/C=C\C/C=C\C/C=C\C/C=C\C/C=C\CCC(=O)Oc1ccc(-c2cc(=O)c3c(O)cc(O)cc3o2)cc1 = 362
• O=c1cc(-c2ccc(O)cc2)oc2cc(O)cc(O)c12 = 607
• CC/C=C\C/C=C\C/C=C\C/C=C\C/C=C\C/C=C\CCC(=O)O [DHA, Cis-4,7,10,13,16,19-Docosahexanoic acid, reference compound] = 920
